Listing of recorded ADCC cytotoxic activity (51Cr release) against all other cancer cell lines listed by entry.
measured.target: T1, human CAPRIN-1 expressed on the surface of human cancer cells (human, UniProt Q14444 2-709)
T1 sequence: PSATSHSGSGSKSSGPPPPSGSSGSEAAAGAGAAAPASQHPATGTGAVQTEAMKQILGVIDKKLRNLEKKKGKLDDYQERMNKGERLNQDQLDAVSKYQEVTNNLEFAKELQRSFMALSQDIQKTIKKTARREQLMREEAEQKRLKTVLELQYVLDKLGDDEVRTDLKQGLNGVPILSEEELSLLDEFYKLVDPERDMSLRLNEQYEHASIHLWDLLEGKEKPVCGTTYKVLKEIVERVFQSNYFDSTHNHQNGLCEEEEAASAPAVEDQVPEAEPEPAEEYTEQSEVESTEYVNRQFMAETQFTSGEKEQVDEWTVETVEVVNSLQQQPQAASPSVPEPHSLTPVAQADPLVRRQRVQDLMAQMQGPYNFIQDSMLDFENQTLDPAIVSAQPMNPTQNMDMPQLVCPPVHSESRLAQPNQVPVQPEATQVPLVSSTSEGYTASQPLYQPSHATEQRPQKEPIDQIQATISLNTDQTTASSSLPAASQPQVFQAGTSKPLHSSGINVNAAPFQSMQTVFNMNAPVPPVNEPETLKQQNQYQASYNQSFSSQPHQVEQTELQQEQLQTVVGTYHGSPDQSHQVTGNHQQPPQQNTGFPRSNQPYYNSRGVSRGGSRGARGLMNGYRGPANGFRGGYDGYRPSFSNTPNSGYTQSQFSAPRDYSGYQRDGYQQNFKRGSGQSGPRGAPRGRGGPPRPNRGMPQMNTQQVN
assay.method.text: cell-based or functional assay
reported.endpoint: ADCC cytotoxic activity (51Cr release) against all other cancer cell lines listed

>  <binder>
human-mouse chimeric comparative monoclonal antibody 7 (antibody, human IgG1, kappa, V domains shown) VH: LQESGAELARPGASVKLSCKASGYTFTSYWMQWVKQRPGQGLEWIGAIYPGDGDTRYTQKFKGKATLTADKSSSTAYMQLSSLASEDSAVYYCARGEYGNYFAYWGQGTTVTVSS VL: TSDASLGERVTITCKASQDINSYLSWFQQKPGKSPKTLIYRANRLVDGVPSRFSGSGSGQDYSLTISSLEYEDMGIYYCLQYDEFPLTFGGGTKLEIKQ

>  <result>
< 4%

$$$$
>  <binder>
human-mouse chimeric monoclonal antibody #2 (antibody, human IgG1, kappa, V domains shown) VH: GGGLVKPGGSLKLSCAASGFTFSSYGMSWVRQTPEKRLEWVATISSGGSYTYYPDSVKGRFTISRDNAKNTLYLQMSSLRSEDTAMYYCASLASYYFDYWGQGTTLTVSS VL: GARCDVQMIQSPSSLSASLGDIVTMTCQASQGTSINLNWFQQKPGKAPKLLIYGASSLEDGVPSRFSGSCFGTDFTLTISSLEDEDMATYFCLQHSYLPPLTFGAGTKLELKR

>  <result>
≥ 10%

$$$$
>  <binder>
human-mouse chimeric comparative monoclonal antibody 4 (antibody, human IgG1, kappa, V domains shown) VH: EVQLHQFGAELVKPGASVKISCKASGYTFTDYNMDWVKQSHGKSLEWIGDINPNYDSTSYNQKFKGKATLTVDKSSSTAYMELRSLTSEDTAVYYCARSRSYDYEGFAYWGQGTLVTVSA VL: SGDRVSLSCRASQSISNYLHWYQQKSHESPRLLIKYASQSISGIPSRFSGSGSGTDFTLSINSVETEDFGMYFCQQSNSWPYTFGAGTKLEIKQ

>  <result>
< 4%

$$$$

Sourced from patent US20140186359A1
